Molecular target: UniProt Q12908
Sequence (Q12908 1-348): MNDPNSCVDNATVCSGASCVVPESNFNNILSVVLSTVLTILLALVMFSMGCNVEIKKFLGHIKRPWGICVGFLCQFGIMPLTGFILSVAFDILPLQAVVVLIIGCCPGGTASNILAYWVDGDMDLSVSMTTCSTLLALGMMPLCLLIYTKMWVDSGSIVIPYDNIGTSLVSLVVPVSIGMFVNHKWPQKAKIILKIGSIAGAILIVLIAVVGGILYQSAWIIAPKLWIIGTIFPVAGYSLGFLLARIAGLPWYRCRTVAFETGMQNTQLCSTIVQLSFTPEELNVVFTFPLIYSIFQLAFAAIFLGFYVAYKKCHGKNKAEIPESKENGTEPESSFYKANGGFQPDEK
Assay: ASBT cis-inhibition of taurocholate uptake in ASBT-MDCK cells
Details: read-out: percent taurocholate inhibited at the highest inhibitor concentration
Please enter Fulfilled where inhibition at 1000 µM is greater than or equal to 70%, and Not fulfilled where it is lower.

// known answers, use as guide
CCCCNc1cc(C(=O)O)cc(S(N)(=O)=O)c1Oc1ccccc1 [Bumetanide, bumetanide]: Not fulfilled
CC(C)n1c(/C=C/C(O)CC(O)CC(=O)O)c(-c2ccc(F)cc2)c2ccccc21 (stereo not drawn): Fulfilled
CC(C)(C#N)c1cc(Cn2cncn2)cc(C(C)(C)C#N)c1: Not fulfilled
Cc1c(OCC(F)(F)F)ccnc1C[S+]([O-])c1nc2ccccc2[nH]1 (stereo not drawn): Fulfilled
CN1CCN(CC/C=C2/c3ccccc3Sc3ccc(S(=O)(=O)N(C)C)cc32)CC1: Not fulfilled

Now look at this entry.
[in] Quick check: does Clc1ccc(C(Cn2ccnc2)OCc2ccsc2Cl)c(Cl)c1 (stereo not drawn) have inhibition at 1000 µM greater than or equal to 70%?
[out] Fulfilled

----------
Molecular target: human apical sodium-dependent transporter (SLC10A2, ASBT) (Homo sapiens, UniProt Q12908)
Experiment: ASBT cis-inhibition of taurocholate uptake in ASBT-MDCK cells
Conditions: Ki, inhibitor concentration range 0-200 μM; mean±S.E.
pKi: −log10 of the molar value. Counter-ions that a name gives are not always drawn.
pKi vs 4: at or above is y, below is n.

Examples with answers:
COc1ccc([C@@H]2Sc3ccccc3N(CCN(C)C)C(=O)[C@@H]2OC(C)=O)cc1 [Diltiazem hydrochloride, diltiazem hydrochloride]: n
CC(C)(C#N)c1cc(Cn2cncn2)cc(C(C)(C)C#N)c1: n
CN1CCN(CC/C=C2/c3ccccc3Sc3ccc(S(=O)(=O)N(C)C)cc32)CC1: n
CC(C)OC(=O)CCC/C=C\C[C@@H]1[C@@H](CC[C@@H](O)CCc2ccccc2)[C@H](O)C[C@@H]1O: y

[in] Check the entry CN1CCCCC1CCN1c2ccccc2Sc2ccc([S+](C)[O-])cc21 (stereo not drawn) [Mesoridazine besylate] : does pKi equal or exceed 4?
[out] y

[in] pKi >= 4 for CC(C(=O)O)c1cccc(C(=O)c2ccccc2)c1 (stereo not drawn) ?
[out] n

[in] Reported pKi at or above 4? N=C(N)c1ccc(OCCCCCOc2ccc(C(=N)N)cc2)cc1 [Pentamidine Isethionate, pentamidine isethionate]
[out] n

----------
Target: human apical sodium-dependent transporter (SLC10A2, ASBT) (Homo sapiens)
Experiment: ASBT cis-inhibition of taurocholate uptake in ASBT-MDCK cells
Conditions: Reference Ki, from the comprehensive inhibition profile
Where a name gives a salt, the structure may show the parent alone.
The label is T for Ki below 100 µM and F for Ki equal to or exceeding 100 µM.

CC(C)c1nc(N(C)S(C)(=O)=O)nc(-c2ccc(F)cc2)c1/C=C/[C@@H](O)C[C@@H](O)CC(=O)O: F
CCCCNc1cc(C(=O)O)cc(S(N)(=O)=O)c1Oc1ccccc1 [Bumetanide, bumetanide]: F
COc1ccc([C@@H]2Sc3ccccc3N(CCN(C)C)C(=O)[C@@H]2OC(C)=O)cc1 [Diltiazem hydrochloride, diltiazem hydrochloride]: F
O=C(O)C[C@H](O)C[C@H](O)/C=C/c1c(C2CC2)nc2ccccc2c1-c1ccc(F)cc1: T
N=C(N)c1ccc(OCCCCCOc2ccc(C(=N)N)cc2)cc1 [Pentamidine Isethionate, pentamidine isethionate]: F

Below: the item to evaluate.
[in] Lab log: compare recorded Ki with 100 µM; is it strictly lower for Cc1c(OCC(F)(F)F)ccnc1C[S+]([O-])c1nc2ccccc2[nH]1 (stereo not shown) ?
[out] F

----------
I'd appreciate it if you could supply potency estimated from few doses values for the items below.
Target: human apical sodium-dependent transporter (SLC10A2, ASBT) (Homo sapiens, UniProt Q12908)
Sequence (Q12908 1-348): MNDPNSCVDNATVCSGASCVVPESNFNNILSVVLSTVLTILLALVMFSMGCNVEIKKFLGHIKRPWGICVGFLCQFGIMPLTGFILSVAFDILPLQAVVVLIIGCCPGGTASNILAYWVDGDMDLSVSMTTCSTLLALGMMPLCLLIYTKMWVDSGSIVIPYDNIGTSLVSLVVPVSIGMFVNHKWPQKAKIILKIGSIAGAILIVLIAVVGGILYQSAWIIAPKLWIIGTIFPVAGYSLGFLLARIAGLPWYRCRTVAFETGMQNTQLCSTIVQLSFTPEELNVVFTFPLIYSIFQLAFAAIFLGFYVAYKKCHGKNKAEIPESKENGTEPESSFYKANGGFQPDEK
Experiment: ASBT cis-inhibition of taurocholate uptake in ASBT-MDCK cells
Conditions: read-out: Ki estimated from one concentration
Counter-ions that a name gives are not always drawn.
Write the quantity with the unit trailing the number.

# example entries with known answers
CN1CCCCC1CCN1c2ccccc2Sc2ccc([S+](C)[O-])cc21 (centres unmarked) [Mesoridazine besylate]: 59.5 µM
CC(C)n1c(/C=C/C(O)CC(O)CC(=O)O)c(-c2ccc(F)cc2)c2ccccc21 (centres unmarked): 29.7 µM
COC(=O)C1=C(C)NC(C)=C(C(=O)OC(C)C)C1c1cccc2nonc12 (centres unmarked): 32.7 µM
CCCCOc1cc(C(=O)NCCN(CC)CC)c2ccccc2n1 [Dibucaine hydrochloride, dibucaine hydrochloride]: 116 µM

Attention now turns to another entry.
[in] Please give the documented potency estimated from few doses of "CC(C)OC(=O)CCC/C=C\C[C@@H]1[C@@H](CC[C@@H](O)CCc2ccccc2)[C@H](O)C[C@@H]1O"
[out] 17.3 µM

----------
Biological target: human apical sodium-dependent transporter (SLC10A2, ASBT) (Homo sapiens)
Sequence (Q12908 1-348): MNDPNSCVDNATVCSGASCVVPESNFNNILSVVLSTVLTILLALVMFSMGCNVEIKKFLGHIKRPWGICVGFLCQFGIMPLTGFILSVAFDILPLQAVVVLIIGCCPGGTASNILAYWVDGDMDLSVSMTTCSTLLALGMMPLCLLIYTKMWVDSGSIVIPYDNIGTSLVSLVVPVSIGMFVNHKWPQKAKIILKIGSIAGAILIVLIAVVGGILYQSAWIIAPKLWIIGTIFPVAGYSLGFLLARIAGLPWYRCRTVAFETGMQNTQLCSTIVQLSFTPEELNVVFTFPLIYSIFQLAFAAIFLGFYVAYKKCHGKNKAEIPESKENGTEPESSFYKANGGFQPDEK
Conditions: 100 µM
Readout Type: inhibition

# example entries with known answers
CC(C)OC(=O)CCC/C=C\C[C@@H]1[C@@H](CC[C@@H](O)CCc2ccccc2)[C@H](O)C[C@@H]1O: 79.4%
CN1CCCCC1CCN1c2ccccc2Sc2ccc([S+](C)[O-])cc21 (stereo not shown) [Mesoridazine besylate]: 52.5%
CC(C)c1nc(N(C)S(C)(=O)=O)nc(-c2ccc(F)cc2)c1/C=C/[C@@H](O)C[C@@H](O)CC(=O)O: 37.8%
N=C(N)c1ccc(OCCCCCOc2ccc(C(=N)N)cc2)cc1 [Pentamidine Isethionate, pentamidine isethionate]: 27.9%
Clc1ccc(C(Cn2ccnc2)OCc2ccsc2Cl)c(Cl)c1 (stereo not shown): 63.7%
CC(C)n1c(/C=C/C(O)CC(O)CC(=O)O)c(-c2ccc(F)cc2)c2ccccc21 (stereo not shown): 77%
COc1ccc2c(c1)c(CC(=O)O)c(C)n2C(=O)c1ccc(Cl)cc1: 46.8%
CC(C)(C#N)c1cc(Cn2cncn2)cc(C(C)(C)C#N)c1: 13.2%
O=C(O)C[C@H](O)C[C@H](O)/C=C/c1c(C2CC2)nc2ccccc2c1-c1ccc(F)cc1: 52.4%

[in] Return the recorded inhibition value; entry: Cc1c(OCC(F)(F)F)ccnc1C[S+]([O-])c1nc2ccccc2[nH]1 (stereo not shown)
[out] 39.4%

The reported numbers originate from paper PMC2909451.
